Experiment: Pharmacokinetics of caspofungin during continuous venovenous hemodiafiltration (CVVHD)
Type: in vivo, human
Conditions: human, in vivo, iv, patient 6; 6 h after infusion ended; steady state, CVVHD; HPLC; read-out: Arterial caspofungin concentration
Measured metric: level at 6 h (ng/mL)
Give bare numbers, in ng/mL.

The value of level at 6 h measured for the compound CC[C@H](C)C[C@H](C)CCCCCCCCC(=O)N[C@H]1C[C@@H](O)[C@@H](NCCN)NC(=O)[C@@H]2[C@@H](O)CCN2C(=O)[C@H]([C@H](O)CCN)NC(=O)[C@H]([C@H](O)[C@@H](O)c2ccc(O)cc2)NC(=O)[C@@H]2C[C@@H](O)CN2C(=O)[C@H]([C@@H](C)O)NC1=O turned out to be 5840

----------
Test: Pharmacokinetics of caspofungin during continuous venovenous hemodiafiltration (CVVHD)
Format: in vivo, human
Conditions: human, in vivo, iv, patient 12; 0.5 h after infusion ended; steady state, CVVHD; HPLC; read-out: Arterial caspofungin concentration
Measured metric: level at 0.5 h (ng/mL)
Numbers only, in ng/mL.

The value of level at 0.5 h measured for the compound CC[C@H](C)C[C@H](C)CCCCCCCCC(=O)N[C@H]1C[C@@H](O)[C@@H](NCCN)NC(=O)[C@@H]2[C@@H](O)CCN2C(=O)[C@H]([C@H](O)CCN)NC(=O)[C@H]([C@H](O)[C@@H](O)c2ccc(O)cc2)NC(=O)[C@@H]2C[C@@H](O)CN2C(=O)[C@H]([C@@H](C)O)NC1=O turned out to be 7020

----------
Assay: Pharmacokinetics of caspofungin during continuous venovenous hemodiafiltration (CVVHD)
Type: in vivo, human
Conditions: human, in vivo, iv; Mean ± SD of 12 patients; steady state, CVVHD; SD; read-out: AUC0-24 Venous
Measured metric: AUC(0-t) (µg·h/mL)
Answers are plain numbers, in µg·h/mL.

The value of AUC(0-t) measured for the molecule CC[C@H](C)C[C@H](C)CCCCCCCCC(=O)N[C@H]1C[C@@H](O)[C@@H](NCCN)NC(=O)[C@@H]2[C@@H](O)CCN2C(=O)[C@H]([C@H](O)CCN)NC(=O)[C@H]([C@H](O)[C@@H](O)c2ccc(O)cc2)NC(=O)[C@@H]2C[C@@H](O)CN2C(=O)[C@H]([C@@H](C)O)NC1=O turned out to be 123

----------
Test: Pharmacokinetics of caspofungin during continuous venovenous hemodiafiltration (CVVHD)
Assay type: in vivo, human
Conditions: human, in vivo, iv, patient 5; 2 h after infusion ended; steady state, CVVHD; HPLC; read-out: Arterial caspofungin concentration
Measured metric: level at 2 h (ng/mL)
One number for each entry, in ng/mL.

The value of level at 2 h measured for the compound CC[C@H](C)C[C@H](C)CCCCCCCCC(=O)N[C@H]1C[C@@H](O)[C@@H](NCCN)NC(=O)[C@@H]2[C@@H](O)CCN2C(=O)[C@H]([C@H](O)CCN)NC(=O)[C@H]([C@H](O)[C@@H](O)c2ccc(O)cc2)NC(=O)[C@@H]2C[C@@H](O)CN2C(=O)[C@H]([C@@H](C)O)NC1=O turned out to be 3850

----------
Experiment: Pharmacokinetics of caspofungin during continuous venovenous hemodiafiltration (CVVHD)
Type: in vivo, human
Settings: human, in vivo, iv, patient 9; 1.5 h after infusion ended; steady state, CVVHD; HPLC; read-out: Arterial caspofungin concentration
Measured metric: level at 1.5 h (ng/mL)
One number for each entry, in ng/mL.

The value of level at 1.5 h measured for the compound CC[C@H](C)C[C@H](C)CCCCCCCCC(=O)N[C@H]1C[C@@H](O)[C@@H](NCCN)NC(=O)[C@@H]2[C@@H](O)CCN2C(=O)[C@H]([C@H](O)CCN)NC(=O)[C@H]([C@H](O)[C@@H](O)c2ccc(O)cc2)NC(=O)[C@@H]2C[C@@H](O)CN2C(=O)[C@H]([C@@H](C)O)NC1=O turned out to be 6030
